Target: Epidermal growth factor receptor (Homo sapiens, UniProt P00533, L858R/T790M)
Sequence (P00533 25-1210 T790M/L858R limits assumed): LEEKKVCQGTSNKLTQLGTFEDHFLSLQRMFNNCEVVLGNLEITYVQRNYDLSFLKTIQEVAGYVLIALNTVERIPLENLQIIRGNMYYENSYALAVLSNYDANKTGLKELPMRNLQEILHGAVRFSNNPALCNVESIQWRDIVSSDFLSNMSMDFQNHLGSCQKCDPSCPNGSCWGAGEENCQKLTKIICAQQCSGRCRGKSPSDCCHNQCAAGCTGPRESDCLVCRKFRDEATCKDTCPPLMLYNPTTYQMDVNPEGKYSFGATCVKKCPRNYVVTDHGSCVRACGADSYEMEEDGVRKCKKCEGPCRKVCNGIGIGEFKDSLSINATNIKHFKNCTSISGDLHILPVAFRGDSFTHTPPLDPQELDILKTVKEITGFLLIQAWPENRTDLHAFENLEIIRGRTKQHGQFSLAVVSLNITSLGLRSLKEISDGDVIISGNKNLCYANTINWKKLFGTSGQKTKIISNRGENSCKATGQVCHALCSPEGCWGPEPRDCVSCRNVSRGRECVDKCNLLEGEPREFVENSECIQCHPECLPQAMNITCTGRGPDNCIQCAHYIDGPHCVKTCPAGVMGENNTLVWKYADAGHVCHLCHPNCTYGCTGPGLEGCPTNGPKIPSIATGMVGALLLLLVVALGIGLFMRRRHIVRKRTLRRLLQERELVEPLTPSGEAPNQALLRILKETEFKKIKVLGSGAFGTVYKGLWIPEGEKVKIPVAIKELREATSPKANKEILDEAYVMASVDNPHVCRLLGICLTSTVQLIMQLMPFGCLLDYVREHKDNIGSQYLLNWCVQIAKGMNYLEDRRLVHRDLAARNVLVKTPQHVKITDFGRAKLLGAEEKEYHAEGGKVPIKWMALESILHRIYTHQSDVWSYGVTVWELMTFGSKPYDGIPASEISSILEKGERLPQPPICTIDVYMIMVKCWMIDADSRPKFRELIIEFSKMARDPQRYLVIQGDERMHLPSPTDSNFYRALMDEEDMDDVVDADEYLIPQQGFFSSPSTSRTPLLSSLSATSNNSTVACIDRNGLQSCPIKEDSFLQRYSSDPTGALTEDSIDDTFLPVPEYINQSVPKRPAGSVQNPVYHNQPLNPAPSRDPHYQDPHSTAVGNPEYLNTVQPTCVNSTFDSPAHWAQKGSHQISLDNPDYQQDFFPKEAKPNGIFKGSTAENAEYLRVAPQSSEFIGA
Experiment: Inhibition of recombinant human N-terminal GST-tagged EGFR T790M/L858R double mutant using biotinylated TK peptide as substrate measured after 30 mins by HTRF assay
parameter measured: IC50
Hi, when you answer, please include the unit after the number. Thanks!

smiles notation	parameter measured	data value
C#CCn1cc(-c2ccnc(Nc3cc(NC(=O)C=C)c(N(C)CCN(C)C)cc3OC)n2)c2ccccc21	IC50	1.01 nM

Please give the measured IC50 for this molecule: "C=CC(=O)Nc1cc(Nc2nccc(-c3cn(CCO)c4ccccc34)n2)c(OC)cc1N(C)CCN(C)C"
0.86 nM

Please give the measured IC50 for this molecule: "C=CCn1cc(-c2ccnc(Nc3cc(NC(=O)C=C)c(N(C)CCN(C)C)cc3OC)n2)c2ccccc21"
1.51 nM
